# Test system: P. aeruginosa (PA)
# Procedure summary: MIC by microdilution, 36 clinical and laboratory strains with known efflux phenotype
# Format: cell-based
# Condition: strain 63, efflux AB + EF + XY+, RPMI
The reader will find reported MIC values listed item by item below.

Smiles representation | MIC (µg/mL)
CC[C@H]1OC(=O)[C@H](C)[C@@H](O[C@H]2C[C@@](C)(OC)[C@@H](O)[C@H](C)O2)[C@H](C)[C@@H](O[C@@H]2O[C@H](C)C[C@H](N(C)C)[C@H]2O)[C@](C)(OC)C[C@@H](C)C(=O)[C@H](C)[C@@H](O)[C@]1(C)O | 32
CC[C@H]1OC(=O)[C@H](C)[C@@H](O[C@H]2C[C@@](C)(OC)[C@@H](O)[C@H](C)O2)[C@H](C)[C@@H](O[C@@H]2O[C@H](C)C[C@H](N(C)C)[C@H]2O)[C@](C)(O)C[C@@H](C)C(=O)[C@H](C)[C@@H](O)[C@]1(C)O | 64
CC[C@H]1OC(=O)[C@H](C)C(=O)[C@H](C)[C@@H](O[C@@H]2O[C@H](C)C[C@H](N(C)C)[C@H]2O)[C@](C)(OC)C[C@@H](C)C(=O)[C@H](C)[C@H]2N(CCCCn3cnc(-c4cccnc4)c3)C(=O)O[C@]12C | 4
CC[C@H]1OC(=O)[C@H](C)[C@@H](O[C@H]2C[C@@](C)(OC)[C@@H](O)[C@H](C)O2)[C@H](C)[C@@H](O[C@@H]2O[C@H](C)C[C@H](N(C)C)[C@H]2O)[C@](C)(O)C[C@@H](C)CN(C)[C@H](C)[C@@H](O)[C@]1(C)O | 2
CC[C@H]1OC(=O)[C@@](C)(F)C(=O)[C@H](C)[C@@H](O[C@@H]2O[C@H](C)C[C@H](N(C)C)[C@H]2O)[C@](C)(OC)C[C@@H](C)C(=O)[C@H](C)[C@H]2N(CCCCn3cc(-c4cccc(N)c4)nn3)C(=O)O[C@]12C | 4

###

# Test system: P. aeruginosa (PA)
# Procedure summary: MIC by microdilution, 36 clinical and laboratory strains with known efflux phenotype
# Type: cell-based
# Condition: strain 21, efflux AB+, RPMI
Readout: MIC

Smiles representation | Tested system | Result
CC[C@H]1OC(=O)[C@@](C)(F)C(=O)[C@H](C)[C@@H](O[C@@H]2O[C@H](C)C[C@H](N(C)C)[C@H]2O)[C@](C)(OC)C[C@@H](C)C(=O)[C@H](C)[C@H]2N(CCCCn3cc(-c4cccc(N)c4)nn3)C(=O)O[C@]12C | P. aeruginosa (PA) | 4 µg/mL
CC[C@H]1OC(=O)[C@H](C)[C@@H](O[C@H]2C[C@@](C)(OC)[C@@H](O)[C@H](C)O2)[C@H](C)[C@@H](O[C@@H]2O[C@H](C)C[C@H](N(C)C)[C@H]2O)[C@](C)(O)C[C@@H](C)C(=O)[C@H](C)[C@@H](O)[C@]1(C)O | P. aeruginosa (PA) | 64 µg/mL

###

# System: P. aeruginosa (PA)
# Procedure summary: MIC by microdilution, 36 clinical and laboratory strains with known efflux phenotype
# Assay type: cell-based
# Condition: strain 397, efflux AB−, MHB
Catalogue of MIC readings, one per entry.

Compound | Unit spec | MIC
CC[C@H]1OC(=O)[C@H](C)C(=O)[C@H](C)[C@@H](O[C@@H]2O[C@H](C)C[C@H](N(C)C)[C@H]2O)[C@](C)(OC)C[C@@H](C)C(=O)[C@H](C)[C@H]2N(CCCCn3cnc(-c4cccnc4)c3)C(=O)O[C@]12C [TEL, telithromycin] | µg/mL | 8
CC[C@H]1OC(=O)[C@H](C)[C@@H](O[C@H]2C[C@@](C)(OC)[C@@H](O)[C@H](C)O2)[C@H](C)[C@@H](O[C@@H]2O[C@H](C)C[C@H](N(C)C)[C@H]2O)[C@](C)(O)C[C@@H](C)CN(C)[C@H](C)[C@@H](O)[C@]1(C)O [AZM, azithromycin] | µg/mL | 8
